Source of measurements: the MegaScale stability set (Tsuboyama et al. 2023)

# folding stability dG per entry
B1: HHH_rd1_0493 (parent)
chain: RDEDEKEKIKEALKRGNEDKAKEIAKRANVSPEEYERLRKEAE

# Variants of: B1
# Test: folding stability dG (cDNA display proteolysis); higher = more stable
# Condition Details: PBS, room temperature
Report only the number, with the unit kcal/mol understood.

Examples with answers:
E43W: 3.31
E41N: 1.77
R27S: 2.68
K10H: 0.938
Y35W: 2.58

Any idea what its folding stability dG is? The variant is `A25M`
1.88

What about `K40G` ?
2.62

What about `P32S` ?
2.67

What about `D19L` ?
2.98

What about `N29P` ?
0.97

What about `G16P` ?
0.767

What about `G16M` ?
1.46

What about `Y35L` ?
2.26

What about `A12I` ?
1.24

What about `N17E` ?
3.38

What about `S31H` ?
1.95

What about `E11Q` ?
2.83

What about `E36H` ?
1.75

What about `R27N` ?
2.83

What about `L13K` ?
0.273

What about `K40E` ?
2.98

What about `V30H` ?
0.486

What about `A28V` ?
2.32
